biological target: Mushroom tyrosinase (Agaricus bisporus, UniProt O42713+Q00024+C7FF04+C7FF05); experiment: Inhibition of mushroom tyrosinase using L-DOPA as substrate preincubated for 10 mins followed by substrate addition and measured after 20 mins by absorbance based analysis
measured.parameter: IC50 (nM)

Completed entries (count: 4):
>  <structure.smiles.string>
N#Cc1ccc(OCc2cn(CC3=CC(=O)C(O)=CC3=O)nn2)cc1

>  <IC50 [nM]>
6290

$$$$
>  <structure.smiles.string>
CCc1cccc(C)c1NC(=O)CSc1nnc(Cc2csc(N)n2)n1-c1ccccc1

>  <IC50 [nM]>
190

$$$$
>  <structure.smiles.string>
O=C1C=C(Cn2cc(COc3ccc(Cl)cc3Cl)nn2)C(=O)C=C1O

>  <IC50 [nM]>
1120

$$$$
>  <structure.smiles.string>
COc1cc(OCc2cn(CC3=CC(=O)C(O)=CC3=O)nn2)cc(OC)c1OC

>  <IC50 [nM]>
870

$$$$

(a) O=C1C=C(Cn2cc(COc3ccccc3)nn2)C(=O)C=C1O
(b) O=C1C=C(Cn2cc(COc3ccc(F)cc3)nn2)C(=O)C=C1O
(c) Cc1ccccc1NC(=O)CSc1nnc(Cc2csc(N)n2)n1-c1ccccc1
(d) Cc1cc(C)cc(NC(=O)CSc2nnc(Cc3csc(N)n3)n2-c2ccccc2)c1
Put the items in sequence by IC50, from largest down. Give your ranking as a list of the labels in the requested order.
a, b, d, c
